tested on: UACC-62 melanoma; experiment: NCI tumour cell line growth inhibition, 48 h
quantity.measured: TGI

                                   compound    result
0  O=C(NNC(=O)c1csc(NC(=S)NC2CCCCC2)n1)c1ccccc1   23.9 µM
1           Nc1ccccc1C#C/C=C\C#Cc1cccc(O)c1    6.6 µM
2      NS(=O)(=O)c1ccc(/C=C/c2ccc(O)cc2)cc1   20.4 µM
3  COc1ccc2nc3cc(Cl)ccc3c(SCC(=O)Nc3ccccc3-c3ccccc3NC(=O)CSc3c4ccc(Cl)cc4nc4ccc(OC)cc34)c2c1  > 100 µM
4  O=C1c2ccccc2N2Oc3ccccc3C12c1ccccc1 (stereo not given)  > 100 µM
5  CC(=O)CC1=C(OC(C)C)C2(OCCO2)C1O (stereo not given)  > 100 µM
6  CC(=O)[CH-]C(=O)c1ccccc1.CC(=O)[CH-]C(=O)c1ccccc1.CC(=O)[CH-]C(=O)c1ccccc1.[In+3]  > 100 µM
7          CN(C)C(=O)c1ccc([N+](=O)[O-])cc1  > 100 µM
8  CC(C)N(C(C)C)S(=O)(=O)C[C@]12CC[C@H](CC13OCC(CS(=O)(=O)c1ccccc1)O3)C2(C)C (stereo not given in full)  > 100 µM
9  CCN(CC)c1oc(N(CC)CC)c(C(=O)Nc2ccccn2)c(=O)c1C(C)=O  > 100 µM

###

tested on: NCI-H23 lung; assay: NCI tumour cell line growth inhibition, 48 h; in the data active = GI50 below about 0.43 µM; inactive = the rest
Labels: TRUE = active, FALSE = inactive

                            structure_smiles  label_class
 0  Cc1nn(C)c(COc2ccc(N3CCN(S(=O)(=O)N(C)C)CC3)cc2)c1-c1cccc2c(CCCOc3cccc4ccccc34)c(C(=O)O)n(CCN3CCOCC3)c12        FALSE
 1      NCCN.O=C([O-])CN1CCOCC1.[OH-].[Pt+4]        FALSE
 2  O=C(Nc1ccc(Oc2cccc(F)c2)c(Cl)c1)c1cnccn1        FALSE
 3  c1ccc2[nH]c(-c3cc(-c4ccc5c(c4)OCO5)n[nH]3)nc2c1        FALSE
 4  CCOC(=O)c1cc2c(n1Cc1cc(OC)c(OC)c(OC)c1)-c1oncc1CCC2         TRUE
 5  Cc1ccc(-c2csc(NC(=O)N3CCN(c4cc5c(cc4F)c(=O)c(C(=O)O)cn5C4CC4)CC3)n2)cc1         TRUE
 6      NS(=O)(=O)c1ccc(/C=C/c2ccc(O)cc2)cc1        FALSE
 7  Nc1c(C(=O)c2cccc(C#CCO)c2)cnn1-c1ccc(F)cc1        FALSE
 8  COc1cc(OC)c2[nH]c3c(O)c(-c4c(C)cc5c([nH]c6c(OC)cc(OC)cc65)c4O)c(C)cc3c2c1        FALSE
 9  Cc1cnc(CNC(=O)c2c(=O)c3ccc(N4CCCN(C)CC4)nc3n3c2sc2ccccc23)cn1        FALSE
10  CC(=O)[CH-]C(=O)c1ccccc1.CC(=O)[CH-]C(=O)c1ccccc1.CC(=O)[CH-]C(=O)c1ccccc1.[In+3]        FALSE
11  O=[N+]([O-])c1ccc(N=Nc2ccc(O)c3ccccc23)cc1        FALSE
12      CN(C)c1ccc(C(=NO)c2ccc(N(C)C)cc2)cc1        FALSE

###

Below, each entry is listed alongside its reported TGI.
tested on: OVCAR-8 ovarian; experiment: NCI tumour cell line growth inhibition, 48 h
quantity.measured: TGI

                                   molecule    result
0  CN(C)C(=O)c1cnc2oc3ccc(O)cc3c2c1-c1ccccc1   > 25 µM
1  O=C1CC(=O)NC(=NNS(=O)(=O)c2ccc(Cl)cc2)N1  > 100 µM
2  COC(=O)C1=C(C)NC(C)=C(C(=O)OCC(C)C)C1c1ccccc1[N+](=O)[O-] (stereo not given)     21 µM
3  COC(=O)C(CC1=C(O)Nc2ccccc2N1)/C(=N/NC(N)=O)C(=O)Nc1ccccc1C (stereo not given)  > 100 µM
4  Nc1c(C(=O)c2cccc(-c3cccnc3)c2)cnn1-c1ccc(F)cc1F   > 25 µM
5  O=S(=O)(/C=C/CS(=O)(=O)c1ccccc1)c1ccccc1   32.5 µM
6  Cc1ccc(-c2nc3nc(-c4ccccc4)nc(N4CCNCC4)c3o2)cc1   1.19 µM
7  Cc1cc(S(=O)(=O)/N=C(\[N-]S(=O)(=O)c2cc(Cl)sc2Cl)[n+]2ccc(N(C)C)cc2)c(S)cc1Cl  > 100 µM
8    O=c1oc2c(Cl)cc(Cl)cc2cc1C1=CSC2=NCCN12  > 100 µM
9  C[C@]12CCC(=O)CC1CCCC2=O (stereo not given in full)  > 100 µM

###

// endpoint GI50 / system MDA-MB-435
quantity.measured: GI50

>>> print(df.to_string())
                                   compound  quantity_measured   result
0  Cc1nn(-c2ccc(Cl)cc2)c2nc3c(nc12)C(=O)C(=O)c1ccccc1-3               GI50  6.31 µM
1  COC(=O)C1=C(C)NC(C)=C(C(=O)OCC(C)C)C1c1ccccc1[N+](=O)[O-] (stereo not given)               GI50  4.25 µM
2  CCC[CH2][Sn]1([CH2]CCC)[O]C2C(CO)OC(n3ccc(N)nc3=O)C2[O]1 (stereo not given)               GI50  1.41 µM
3  CN(C)C(=O)c1cnc2oc3ccc(O)cc3c2c1-c1ccccc1               GI50  > 25 µM
4  COc1cccc(-c2cc3c4c(nc5ccccc53)C(=O)c3cccnc3-c4n2)c1               GI50  1.18 µM

###

test system: SNB-19 CNS; test: NCI tumour cell line growth inhibition, 48 h
Below, each entry is listed alongside its reported GI50.
quantity.measured: GI50

In [3]: df
Out[3]:
                                   compound  quantity_measured   result
0  CC(C)(C)c1[nH]nc2c1C(c1cc3ccccc3[nH]c1=O)Nc1cc(C(=O)OCc3ccccc3)ccc1N2 (stereo not given)               GI50  3.28 µM
1  COC(=O)C1=C(C)NC(C)=C(C(=O)OCC(C)C)C1c1ccccc1[N+](=O)[O-] (stereo not given)               GI50   8.2 µM
2  COc1cc(/C=C/C(=O)c2ccc(F)cc2)ccc1OCCCN1CCN(CC(=O)Nc2ccc(Cl)cc2C(=O)c2ccccc2Cl)CC1               GI50  18.9 µM
3                  N#CSCc1ccc(Cl)c(CSC#N)c1               GI50  10.5 µM
4  Cc1[nH]c(=O)nc(Nc2ccc(Cl)cc2)c1C(=O)N1CCN(CCO)CC1               GI50  33.8 µM
5  COc1ccccc1CNCCCN1C(=O)c2ccc3c4c(ccc(c24)C1=O)C(=O)N(CCCN)C3=O               GI50  1.58 µM
6  COc1ccc(C2=CC(c3ccc(OC)cc3Br)N3C=CSC3=N2)cc1 (stereo not given)               GI50  9.79 µM
7  CC1=C(CCC(C)NCc2ccc(OCCCN3CCCCC3)cc2)C(C)(C)CCC1 (stereo not given)               GI50  2.01 µM
8            O1[As]2O[As]3O[As]1O[As](O2)O3               GI50  1.65 µM
9  c1ccc2[nH]c(-c3cc(-c4ccc5c(c4)OCO5)n[nH]3)nc2c1               GI50  5.92 µM

###

test system: IGROV1 ovarian; assay: NCI tumour cell line growth inhibition, 48 h
Where a SMILES comes first, the peptide text is derived from it. The star is where a group is joined. Boc = CC(C)(C)OC(=O)*
Below, each entry is listed alongside its reported TGI.
quantity.measured: TGI (µM)

>>> print(df.to_string())
                                   molecule  output_unit  rel  quantitative_readout
0  Cn1cc(-c2csc(-c3cn(CCCN4CCCCC4)c4ccccc34)n2)c2cccnc21           µM    =                  3.35
1            CCc1ccccc1NC(=O)/C(N=O)=C(/C)O           µM    >                   100
2  Cc1ccc(-c2nc3nc(-c4ccccc4)nc(N4CCNCC4)c3o2)cc1           µM    =                  1.41
3  Cc1nn(C)c(COc2ccc(N3CCN(S(=O)(=O)N(C)C)CC3)cc2)c1-c1cccc2c(CCCOc3cccc4ccccc34)c(C(=O)O)n(CCN3CCOCC3)c12           µM    =                  11.7
4     CCOC(=O)/C(O)=C(/C(=O)OC)c1ccc(Cl)cc1           µM    >                   100
5  COC(=O)[C@H](Cc1ccc(O)cc1)NC(=O)[C@H](Cc1ccc(O)cc1)NC(=O)OC(C)(C)C (Boc-Tyr-Tyr-OMe)           µM    >                   100
6            O1[As]2O[As]3O[As]1O[As](O2)O3           µM    =                   2.7
7  CC1=C(C(=O)N(C)c2ccc(Cl)c(C(=O)OC(C)C)c2)SCCO1           µM    >                   100
8  COc1ccc(COC2CC(OC)OC(C)C2OC(=O)c2ccccc2)cc1 (stereo not given)           µM    >                   100
9  O=C1C(SCCO)=C(SCCO)C(=O)N1c1ccc(-c2ccccc2)cc1           µM    =                  4.67
